# TEST METHOD NOTES: self-splicing fitness, log relative to wild type (ln ratio); higher = more splicing; Tetrahymena group I intron in knt gene, E. coli kanamycin selection, DiMSum; sequences stand for … in CUCUCU…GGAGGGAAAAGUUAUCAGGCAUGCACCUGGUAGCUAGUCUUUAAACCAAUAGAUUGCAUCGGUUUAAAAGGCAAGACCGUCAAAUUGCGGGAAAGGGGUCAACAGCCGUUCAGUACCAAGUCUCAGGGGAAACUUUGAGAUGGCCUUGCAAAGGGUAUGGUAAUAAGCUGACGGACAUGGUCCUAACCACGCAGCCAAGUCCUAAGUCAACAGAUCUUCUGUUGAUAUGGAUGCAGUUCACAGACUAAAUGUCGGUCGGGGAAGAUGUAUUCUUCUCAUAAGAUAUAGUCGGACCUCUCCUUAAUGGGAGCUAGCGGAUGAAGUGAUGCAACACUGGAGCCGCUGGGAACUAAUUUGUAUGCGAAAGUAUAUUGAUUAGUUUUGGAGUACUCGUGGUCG;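 further: selection with 25 µg/mL kanamycin versus none on LB agar overnight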
# CONDITION LABEL: 37 °C
Would you mind telling me the reported self-splicing fitness (ln) of each entry?
Answers are plain numbers.

Worked set:
# PRIMARY SEQUENCE, MEASURED ENDPOINT, NUMBER
records = [
    ("CAAAAGCAAUAUUACGCAAA", "self-splicing fitness (ln)", -1.76),
    ("AUGAAGCAAUAUUACGGAAU", "self-splicing fitness (ln)", -0.789),
    ("GCGAAGCAAUAUUACGAAAG", "self-splicing fitness (ln)", -1.14),
    ("GGUGAGCAAUAUUACGGCAU", "self-splicing fitness (ln)", -1.05),
    ("AAGCAGCAAUAUUACGAAGA", "self-splicing fitness (ln)", -1.44),
]

For each of the sequences below, note its self-splicing fitness (ln).
1. GGCUAGCAAUAUUACGGGAC
2. CCACAGCAAUAUUACGGGCA

-0.762
-2.92

I need self-splicing fitness (ln) for every entry listed below, if you could help.
1. AAUAAGCAAUAUUACGACGC
2. AACAAGCAAUAUUACGAGAA
3. CCGUAGCAAUAUUACGUUCU
4. GCUGAGCAAUAUUACGGGAG
5. UCGCAGCAAUAUUACGGCAU
6. GGCCAGCAAUAUUACGAGCG

0.0933
-2.03
-3.36
-2.15
-0.415
0.191

Would you mind listing self-splicing fitness (ln) for each of the following sequences?
1. CAUUAGCAAUAUUACGAGUU
2. UAACAGCAAUAUUACGACGA
3. ACACAGCAAUAUUACGAGGG

[-2.67, 0.319, -1.85]

* * *

# TEST METHOD NOTES: self-splicing fitness, log relative to wild type (ln ratio); higher = more splicing; Tetrahymena group I intron in knt gene, E. coli kanamycin selection, DiMSum; sequences stand for … in CUCUCU…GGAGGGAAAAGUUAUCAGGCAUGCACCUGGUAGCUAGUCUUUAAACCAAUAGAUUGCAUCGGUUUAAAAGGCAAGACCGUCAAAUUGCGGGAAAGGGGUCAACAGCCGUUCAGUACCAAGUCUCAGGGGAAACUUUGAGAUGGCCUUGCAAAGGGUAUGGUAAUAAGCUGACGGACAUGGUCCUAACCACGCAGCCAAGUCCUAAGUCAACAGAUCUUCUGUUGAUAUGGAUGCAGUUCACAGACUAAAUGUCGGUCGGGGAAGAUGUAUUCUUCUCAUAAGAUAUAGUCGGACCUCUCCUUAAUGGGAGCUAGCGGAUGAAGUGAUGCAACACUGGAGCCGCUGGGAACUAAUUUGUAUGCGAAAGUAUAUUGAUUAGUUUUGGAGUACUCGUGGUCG
# CONDITION LABEL: 37 °C
Assign 1.0 to entries whose self-splicing fitness (ln) meets or exceeds -2; assign 0.0 to the rest.

# PRIMARY SEQUENCE, CLASS NAME
data = [
    ("CCAAAGCAAUAUUACGGAGA", 1.0),
    ("UCGAAGCAAUAUUACGUGUU", 0.0),
    ("GUUCAGCAAUAUUACGCCGG", 1.0),
    ("GACAAGCAAUAUUACGGAGG", 0.0),
    ("CCUUAGCAAUAUUACGAUUA", 0.0),
]

Threshold query (self-splicing fitness (ln) >= -2) on `UGAGAGCAAUAUUACGUACA`
1.0

Form field: self-splicing fitness (ln) at least -2? Entry: `GCGAAGCAAUAUUACGGUAC`
1.0

Quick check, self-splicing fitness (ln) >= -2? `GGAGAGCAAUAUUACGGUGC`
1.0

Threshold query (self-splicing fitness (ln) >= -2) on `GACGAGCAAUAUUACGCAAC`
0.0

* * *

# TEST METHOD NOTES: self-splicing fitness, log relative to wild type (ln ratio); higher = more splicing; Tetrahymena group I intron in knt gene, E. coli kanamycin selection, DiMSum; sequences stand for … in CUCUCU…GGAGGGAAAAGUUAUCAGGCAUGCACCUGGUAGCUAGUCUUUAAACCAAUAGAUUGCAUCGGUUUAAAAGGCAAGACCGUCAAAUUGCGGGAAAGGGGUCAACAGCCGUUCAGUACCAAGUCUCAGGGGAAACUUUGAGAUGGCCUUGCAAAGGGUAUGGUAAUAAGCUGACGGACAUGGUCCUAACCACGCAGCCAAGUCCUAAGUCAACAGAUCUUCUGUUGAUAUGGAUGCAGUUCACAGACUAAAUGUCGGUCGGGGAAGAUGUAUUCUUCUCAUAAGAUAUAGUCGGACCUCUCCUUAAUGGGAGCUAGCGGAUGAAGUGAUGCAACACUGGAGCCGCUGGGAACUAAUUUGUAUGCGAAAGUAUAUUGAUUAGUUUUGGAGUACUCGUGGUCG
# CONDITION LABEL: 30 °C
Quick rule for you: self-splicing fitness (ln) at -3 or higher means YES, lower means NO.

Please review the entries below; each comes with its answer.
# PRIMARY SEQUENCE, CLASS NAME
records = [
    ("CACAAGCAAUAUUACGUCUG", "YES"),
    ("GGCUAGCAAUAUUACGAGAU", "NO"),
    ("CAUCAGCAAUAUUACGUUAC", "NO"),
    ("CGCAAGCAAUAUUACGGUAG", "YES"),
    ("GCGGAGCAAUAUUACGUGGC", "YES"),
]

Item `AGGUAGCAAUAUUACGGAAC` with self-splicing fitness (ln) of -3 or above?
NO

# check: self-splicing fitness (ln) of `CCAAAGCAAUAUUACGCGCC` is greater than or equal to -3
NO

Given `GUCCAGCAAUAUUACGUAUU` , state whether its self-splicing fitness (ln) is at least -3.
YES

Say whether `CCUAAGCAAUAUUACGUAAA` shows self-splicing fitness (ln) of -3 or more.
NO

Is self-splicing fitness (ln) at least -3? Consider `ACGCAGCAAUAUUACGCAAG`
YES

# check: self-splicing fitness (ln) of `UUGAAGCAAUAUUACGGGGG` is greater than or equal to -3
YES

Given `UUACAGCAAUAUUACGAUGA` , state whether its self-splicing fitness (ln) is at least -3.
YES

For this sequence, is measured self-splicing fitness (ln) -3 or higher? `GGUAAGCAAUAUUACGUUCU`
YES

Exam item: decide whether the reported self-splicing fitness (ln) for `AGGUAGCAAUAUUACGAGAU` is at least -3.
NO

* * *

# TEST METHOD NOTES: self-splicing fitness, log relative to wild type (ln ratio); higher = more splicing; Tetrahymena group I intron in knt gene, E. coli kanamycin selection, DiMSum; sequences stand for … in CUCUCU…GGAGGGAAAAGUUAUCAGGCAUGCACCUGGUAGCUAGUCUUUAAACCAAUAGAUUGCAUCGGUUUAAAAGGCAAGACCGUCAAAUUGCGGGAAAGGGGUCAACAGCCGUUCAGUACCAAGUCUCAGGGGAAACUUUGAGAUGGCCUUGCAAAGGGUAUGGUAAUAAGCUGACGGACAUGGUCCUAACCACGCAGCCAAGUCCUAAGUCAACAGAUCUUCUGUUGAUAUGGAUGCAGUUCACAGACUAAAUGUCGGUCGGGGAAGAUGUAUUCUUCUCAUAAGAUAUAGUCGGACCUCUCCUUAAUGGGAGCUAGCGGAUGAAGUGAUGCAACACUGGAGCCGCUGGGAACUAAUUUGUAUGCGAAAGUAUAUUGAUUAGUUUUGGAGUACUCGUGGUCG
# CONDITION LABEL: 30 °C
Use self-splicing fitness (ln) to assign classes; range list: bottom end = under -3, midrange = from -3 up to -1, top end = -1 and over

Consider `CAACAGCAAUAUUACGUUAG` . To which self-splicing fitness (ln) class does it belong?
midrange

GET /class?item= `CAUGAGCAAUAUUACGCAUU`
midrange

Band for the recorded self-splicing fitness (ln) of `AAUGAGCAAUAUUACGCGCC` ?
bottom end

Class (by measured self-splicing fitness (ln)) for `CUUUAGCAAUAUUACGAUGU`
bottom end

Note: place this sequence into its band. Item: `CGUUAGCAAUAUUACGUUGG`
midrange

Which band does `ACUUAGCAAUAUUACGAGAG` fall in?
midrange

In plain terms, what class is `ACGUAGCAAUAUUACGUUAU` ?
bottom end

Looking at `ACCGAGCAAUAUUACGAAGG` , which class would you pick?
midrange

Please indicate the class for `AAAAAGCAAUAUUACGUUUA` based on its self-splicing fitness (ln).
midrange

Could you tell me which band `GACAAGCAAUAUUACGUAUC` belongs to?
bottom end

For this sequence, which bin applies? `GAUAAGCAAUAUUACGCAAA`
midrange

Which class is correct for the following sequence? `CUUUAGCAAUAUUACGGUUG`
top end

For the record `UAUAAGCAAUAUUACGACGC` , report the class its self-splicing fitness (ln) corresponds to.
bottom end

Class (by measured self-splicing fitness (ln)) for `UUACAGCAAUAUUACGAGAA`
midrange

// bin(item) where item = `GUAAAGCAAUAUUACGUCUU`
top end

In plain terms, what class is `GCUGAGCAAUAUUACGUCCA` ?
midrange

Sort into band: `AUAAAGCAAUAUUACGUCUG`
top end

The entry to classify is `CCUCAGCAAUAUUACGGAGC` ; which class holds it?
bottom end

State the class of the sequence shown: `GUGCAGCAAUAUUACGCAGC`
bottom end

Which self-splicing fitness (ln) category applies to `AUUUAGCAAUAUUACGUUGA` here?
midrange

Textbook exercise: identify the category of the sequence given here, `GGCCAGCAAUAUUACGAGCG` , according to its measured value.
top end

Bin this entry: `GAAGAGCAAUAUUACGGCUG`
midrange

Would you mind sorting `UCUCAGCAAUAUUACGAAGU` into the appropriate category?
midrange
